Experiment: Multiple-dose oral pharmacokinetics of indinavir (plasma) with co-administered Sophora preparations
Assay type: in vivo, Male Wistar rats
Settings: male, Wistar, rat, po, 40 mg/kg, indinavir 40 mg/kg orally, multiple dosage, with Oxymatrine (capsule) 90 mg/kg/day, mean ± S.E.M.
readout_kind: Cmax (ng/mL)

> print(dat)
                                   molecule  measure.unit  measurement
1  CC(C)(C)NC(=O)[C@@H]1CN(Cc2cccnc2)CCN1C[C@@H](O)C[C@@H](Cc1ccccc1)C(=O)N[C@H]1c2ccccc2C[C@H]1O [indinavir]         ng/mL         4970

----------
Assay: Multiple-dose oral pharmacokinetics of indinavir (plasma) with co-administered Sophora preparations
Format: in vivo, Male Wistar rats
Settings: male, Wistar, rat, po, 40 mg/kg, indinavir 40 mg/kg orally twice a day for 7 days, last dose day 8, with vehicle control (1.5% Tween 80), mean ± S.E.M., read-out: AUC0-∞ of indinavir
readout_kind: AUC(0-inf)

> print(dat)
                                smiles.text    measurement
1  CC(C)(C)NC(=O)[C@@H]1CN(Cc2cccnc2)CCN1C[C@@H](O)C[C@@H](Cc1ccccc1)C(=O)N[C@H]1c2ccccc2C[C@H]1O  16100 ng·h/mL

meta.source: paper PMC3281083
